Assay: Metabolic stability evaluation, human liver microsome assay
Assay type: in vitro ADME
Conditions: pH 7.4; human liver microsomes 0.5 mg/mL, compound 1 μM, 37° C.; read-out: HLM T1/2
QUANTITY_NAME: half-life at 1 μM (h)

MOLECULE	half-life at 1 μM, h
Cc1cn(-c2cc(NC(=O)c3ccc(C)c(C#Cc4cn(C(C)C)c5ncnc(N)c45)c3)cc(C(F)(F)F)c2)cn1 [Example 12]	1.11

1: Cc1ccc(C(=O)Nc2ccc(CN3CCN(C)CC3)c(C(F)(F)F)c2)cc1C#Cc1cn(C(C)C)c2ncnc(N)c12 [Example 15]
2: CCn1cc(C#Cc2cc(C(=O)Nc3ccc(CN4CCN(C)CC4)c(C(F)(F)F)c3)ccc2C)c2c(N)ncnc21 [Example 5]
3: Cc1ccc(C(=O)Nc2ccc(CN3CCN(C)CC3)c(C(F)(F)F)c2)cc1C#Cc1cn([C@H]2CC[C@H](O)CC2)c2ncnc(N)c12 [Example 22]
4: CCn1cc(C#Cc2cc(C(=O)Nc3cccc(C(F)(F)F)c3)ccc2C)c2c(N)ncnc21 [Example 6]
List from greatest to least half-life at 1 μM. Sort and list the labels as requested. 4, 3, 1, 2
(4: 6.58 h, 3: 3.8 h, 1: 1.95 h, 2: 1.16 h)

----------
System: Ba/F3 Bcr-Abl T315I cells
Assay: Cell proliferation analysis, Ba/F3 Bcr-Abl T315I
Type: cell-based
Settings: Mus musculus, BaF3, 72 h; 3 days, CellTiter-Glo
QUANTITY_NAME: IC50

# count of solved cases: 2
MOLECULE	IC50
CCn1cc(C#Cc2cc(NC(=O)c3cc(-n4cnc(C)c4)cc(C(F)(F)F)c3)ccc2C)c2c(N)ncnc21 [Example 21]	≤ 10 nM
Cc1ccc(C(=O)Nc2cccc(C(F)(F)F)c2)cc1C#Cc1cn(C(C)C)c2ncnc(N)c12 [Example 13]	20 to 50 nM

Would you mind telling me what IC50 value was observed for Cc1ccc(NC(=O)c2ccc(CN3CCN(C)CC3)c(C(F)(F)F)c2)cc1C#Cc1cn([C@H]2CC[C@H](O)CC2)c2ncnc(N)c12 [Example 25] ? 20 to 50 nM

Record: CCn1cc(C#Cc2cc(C(=O)Nc3cccc(C(F)(F)F)c3)ccc2C)c2c(N)ncnc21 [Example 6] 10 to 20 nM

Record: CCn1cc(C#Cc2cc(C(=O)Nc3ccc(CN4CCN(C)CC4)c(C(F)(F)F)c3)ccc2C)c2c(N)ncnc21 [Example 5] ≤ 10 nM

Record: Cc1ccc(C(=O)Nc2ccc(C)c(C(F)(F)F)c2)cc1C#Cc1cn([C@H]2CC[C@H](O)CC2)c2ncnc(N)c12 [Example 24] 10 to 20 nM

Record: Cc1cn(-c2cc(NC(=O)c3ccc(C)c(C#Cc4cn(C(C)C)c5ncnc(N)c45)c3)cc(C(F)(F)F)c2)cn1 [Example 12] 20 to 50 nM

----------
Test: Metabolic stability evaluation, human liver microsome assay
Assay type: in vitro ADME
Conditions: pH 7.4; human liver microsomes 0.5 mg/mL, compound 1 μM, 37° C.; read-out: HLM T1/2
QUANTITY_NAME: half-life at 1 μM (min)

CHEM_SMILES	QUANTITY_NAME	ASSAY_VALUE
CCn1cc(C#Cc2cc(NC(=O)c3cccc(C(F)(F)F)c3)ccc2C)c2c(N)ncnc21	half-life at 1 μM	80.5

1: CCn1cc(C#Cc2cc(NC(=O)c3ccc(CN4CCN(C)CC4)c(C(F)(F)F)c3)ccc2C)c2c(N)ncnc21
2: Cc1ccc(NC(=O)c2ccc(CN3CCN(C)CC3)c(C(F)(F)F)c2)cc1C#Cc1cn([C@H]2CC[C@H](O)CC2)c2ncnc(N)c12
Hi! Which is lower in terms of half-life at 1 μM, the first one 1 or the second one 2 ? Respond using the label that marks the chosen record. 1
(1: 81.6 min, 2: 182 min)
